# Experiment Notes: Dog 7-day repeat dose PO study
# Assay type: in vivo
# Stated Conditions: female, plasma, 400 mg/kg, Day 1, 400 mg/kg PO, F, N = 1
# Method: The objective was to develop a preliminary toxicity profile of Compound 1 following daily oral (gavage) administration for 7 days to male and female dogs to support dose selection for a 28-day toxicity study in dogs. Doses were selected based on the results of the MTD phase. Dose levels were 0 (Vehicle Control), 200, 350 and 400 mg/kg (1 dog/sex/group). The vehicle was 0.5% aqueous HPMC. The animals used in this study were returned to the holding colony
Counter-ions that a name gives are not always drawn.
Parameter: Cmax (µg/mL)
Numeric only. Scale: µg/mL

Query: Which Cmax is reported for this compound? CC1(C)SC(Nc2ccccc2O)=N[C@@H]1C(=O)O [Compound 1, mono-hydrochloride]
Result: 109

The reported numbers originate from patent US20200246316A1.
